tested on: SF-539 CNS; assay: NCI-60 one-dose screen, 48 h; details: 10 µM unless noted
The panel holds about 83,000 compounds, 20% with a hit somewhere; the sample as a whole holds those more often. The source made the active and inactive calls. The calls were made as follows: active = growth percent below 10; inactive = the rest.
Classes used: YES (active), NO (inactive)

1. CN1CCN(CCCOC(=O)c2c3c(n4ccccc24)C(=O)c2ncccc2C3=O)CC1 : YES
2. CN1C(=O)N(C)C2C1NC(=S)N2/N=C/C=C/c1ccccc1[N+](=O)[O-] (stereo not given) : YES
3. CCN(CC)CCCC(C)Nc1ccc2cc(OC)ccc2n1 (stereo not given) : NO
4. COc1ccc(NC(=O)c2ccc(C(=O)Nc3ccc(OC)cc3OC)cc2)c(OC)c1 : NO
5. O=C(Nc1nc(C(=O)N2CCN(C(c3ccccc3)c3ccccc3)CC2)cs1)c1ccc(NC2CCCCC2)c([N+](=O)[O-])c1 : NO
6. COc1ccc(Cc2nnc(Nc3nc4ccccc4s3)s2)cc1 : NO
7. CC(=O)Nc1c(Cl)cc(Cl)c2c1Cc1cc([N+](=O)[O-])ccc1-2 : NO
8. COC(=O)C1=Nc2ccc(F)cc2/C1=C\c1sc(Nc2ccc(O)cc2)nc1O : NO
9. C/C(C=O)=C\c1ccc2c(c1)OCO2 : NO
10. C=C(CO)[C@@H]1CC[C@]2(COC3CCCCO3)CC[C@]3(C)[C@H](CC[C@@H]4[C@@]5(C)C=C(C=O)C(=O)C(C)(C)[C@@H]5CC[C@]43C)[C@@H]12 (stereo not given in full) : YES
11. CC(C)CCSc1nc(Nc2ccccc2)c(C#N)c(-c2ccccc2)n1 : NO
12. CCOC(=O)/C=C/c1c(C)[nH]c(=O)[nH]c1=O : NO
13. CCNCc1ccc(O)c2ncccc12 : NO
14. COc1ccc2nc(SCC(=O)Nc3ccccc3C)[nH]c2c1 : NO
15. COc1ccc(/C=C/C(=O)c2cc3c(N)c(C(=O)Nc4ccc(OC)cc4)sc3nc2C)cc1 : YES
16. C=C1C(=O)O[C@H]2[C@H]1CC/C(COC(=O)NCc1ccc(Cn3c(=O)sn(-c4ccc(OC)cc4)c3=O)cc1)=C\CC[C@@]1(C)O[C@@H]21 : NO
17. CN1CCN(Cc2ccc(NC(=O)c3cncc(C#Cc4cnn5ccccc45)c3)cc2C(F)(F)F)CC1 : YES
18. COc1ccc(/C(C)=C(\c2ccc(Cl)cc2)c2ccc(OCCN3CCCC3)cc2)cc1 : NO
19. CCOC(=O)c1c(C)c2c(n1C)CSc1cc(S(=O)(=O)c3ccccc3)c(=O)[nH]c1-2 : NO
20. COc1ccc(OC)c(-c2cn3nc(-c4c[nH]c5ccc(Br)cc45)sc3n2)c1 : YES
